# test_target: human RORγt ligand binding domain (RORγt LBD) (Homo sapiens)
# Construct: His-tag (N); TurboTEV protease cleavage site (ENLYFQG) (N)
# Sequence (P51449 with tags, fused parts or gaps): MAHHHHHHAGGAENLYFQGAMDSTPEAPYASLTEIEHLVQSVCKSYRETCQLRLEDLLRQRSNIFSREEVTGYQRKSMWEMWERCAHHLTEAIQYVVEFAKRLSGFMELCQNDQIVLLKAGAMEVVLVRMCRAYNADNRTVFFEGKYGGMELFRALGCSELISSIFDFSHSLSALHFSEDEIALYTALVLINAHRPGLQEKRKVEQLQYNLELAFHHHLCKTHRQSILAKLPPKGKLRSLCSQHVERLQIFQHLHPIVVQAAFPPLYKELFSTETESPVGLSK
# test_protocol: RORγt ThermoFluor assay
# run_parameters: estimated from thermal shift concentration response
pKd: −log10 of the molar value.
parameter_measured: pKd

Please review the following examples before continuing.
{"substance_smiles": "CCN(CC(F)(F)F)C(=O)c1nc(-c2nnc(C(C)(C)O)o2)sc1-c1ccc(S(=O)(=O)N[C@@H](C)C(F)(F)F)c(Cl)c1Cl", "pKd": 8.20}
{"substance_smiles": "C[C@H](NS(=O)(=O)c1ccc(-c2sc(-c3nnc(C(C)(C)O)o3)nc2C(=O)N2CCC(F)(F)CC2)c2c1CCCO2)C(F)(F)F", "pKd": 8.28}

a: C[C@H](NS(=O)(=O)c1ccc(-c2sc(-c3nnc(CC(C)(C)O)o3)nc2C(=O)N2CCC(F)(F)CC2)c(Cl)c1Cl)C(F)(F)F
b: C[C@H](NS(=O)(=O)c1ccc(-c2sc(-c3nnc(CC(C)(C)O)o3)nc2C(=O)N2CCC(F)(F)C2)c(Cl)c1Cl)C(F)(F)F
c: CCN(CC)C(=O)c1nc(-c2cc(C(C)(C)O)ccn2)sc1-c1ccc(S(=O)(=O)N[C@@H](C)C(F)(F)F)c(Cl)c1Cl
Exam item: Endpoint returns the given compounds ordered by ascending pKd. Answer by listing the labels in the order asked for.
Marked response: b, c, a
